Test: NCI Yeast Anticancer Drug Screen. Data for the cln2 rad14 strain (AID 165);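 note: 0% = growth equal to vehicle treated cultures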
Settings: S. cerevisiae cln2 rad14 strain, at 50.0 µM, hits give high values
About 79,000 compounds went through this panel and 15% of them were active in at least one assay; those are over-represented in the sample as a whole.
# growth inhibition per entry
QUANTITY_KIND: growth inhibition (%)

- MOLECULE: "O=C1CN2CCC1CC2"
  RECORDED_MEASUREMENT: 12.6
- MOLECULE: "COc1ccc(C(C#N)C(C)=O)cc1 (configuration not stated)"
  RECORDED_MEASUREMENT: 4.45
- MOLECULE: "Cc1ccc(S(=O)(=O)N/N=C(\\CCN2CCCC2)CC(c2ccccc2)c2c(O)c3ccccc3oc2=O)cc1 (configuration not stated)"
  RECORDED_MEASUREMENT: 21.8
- MOLECULE: "CCCCP(=O)(CCCC)CCCC.CCCCP(=O)(CCCC)CCCC.CCCCP(=O)(CCCC)CCCC.CCCCP(=O)(CCCC)CCCC.[Mn+2].[O-][Cl+3]([O-])([O-])O"
  RECORDED_MEASUREMENT: -17.5
- MOLECULE: "C#CCOC(N)=O"
  RECORDED_MEASUREMENT: -18.6
- MOLECULE: "Oc1c(Cl)cccc1Cl"
  RECORDED_MEASUREMENT: -1.6
- MOLECULE: "N#Cc1cccnc1"
  RECORDED_MEASUREMENT: 5.6
- MOLECULE: "CCOC(=O)C(Cc1ccc(N(CCCl)CCCl)cc1)NC(=O)C(NC(C)=O)C(C)C (configuration not stated)"
  RECORDED_MEASUREMENT: 17.4
- MOLECULE: "C1CC[N+]2=C(C1)OCCC2"
  RECORDED_MEASUREMENT: -17.2
- MOLECULE: "CC(C)C(C)(O)C#N (configuration not stated)"
  RECORDED_MEASUREMENT: -23.4
- MOLECULE: "COc1cc2c(c3oc4cccc(O)c4c(=O)c13)[C@@H]1C=CO[C@@H]1O2"
  RECORDED_MEASUREMENT: 26.1
- MOLECULE: "Cc1ccc(O)cc1C"
  RECORDED_MEASUREMENT: 26.8
